test system: SNB-19 CNS; assay: NCI-60 one-dose screen, 48 h; details: 10 µM unless noted
About 83,000 compounds went through this panel and 20% of them were active in at least one assay; those are over-represented in the sample as a whole. Active and inactive are the calls of the source. How the source made its calls: active means growth percent below 10; inactive means the rest.
Return exactly one item of yes (active), no (inactive)

Answered examples (5):
NC(=NCCCCCCN=C(N)/N=C(\N)Nc1ccc(Cl)cc1)/N=C(\N)Nc1ccc(Cl)cc1 ... no
C(=C1c2ccccc2-c2ccccc21)c1ccncc1 ... no
Oc1c(Cl)cc(Oc2cc(Cl)c(O)c(CN3CCOCC3)c2)cc1CN1CCOCC1 ... no
c1ccc(-c2n(Cc3ccc4ccccc4c3)cc[n+]2Cc2ccc3ccccc3c2)cc1 ... yes
CC(=O)N1N=C(c2ccc(Nc3nc(NCCO)nc(NCCO)n3)cc2)CC1c1ccc(Cl)cc1 (stereo unspecified) ... no

Task: Outcome? "CCCCCCCC[Si](OCC)(OCC)OCC"
Output: no

Task: Outcome? "COc1cc(OC)c2c(c1Cl)O[C@]1(C2=O)C(OCc2ccccc2)=CC(=O)C[C@H]1C"
Output: no

Task: Outcome? CC1CN(C2CCCCC2)C(=O)NC1=O (stereo unspecified)
Output: no

Task: Outcome? "O=c1ncc(-c2ccc(C(F)(F)F)cc2)c(NC2CCCCCC2)[nH]1"
Output: no

Task: Outcome? "CN1CCN(c2nc3scc(-c4ccccc4)c3c(=O)[nH]2)CC1"
Output: no

Task: Outcome? "CCN(CC)CCCCCCCNc1c2ccc(Cl)cc2nc2ccc(OC)cc12"
Output: yes

Task: Outcome? "C[C@]12CCC(=O)C=C1CC[C@H]1[C@@H]3C[C@@H](O)[C@](O)(C(=O)CO)[C@@]3(C)C[C@H](O)[C@@]12F"
Output: no

Task: Outcome? "CCOC(=O)/C=C1/SC(=Nc2ccc(C#N)cc2)N(Cc2ccco2)C1=O"
Output: no
